# TESTED_TARGET: HLA-A*1101 (human)
# PROTOCOL_TEXT: competition with 125I-labelled probe peptide for purified HLA-A*1101, gel filtration; ratio to standard peptide 940.06 [..] (6.0 nM)
PROPERTY_NAME: relative binding ratio (IC50 of standard peptide / IC50 of test peptide) (ratio)
Answer with a number only, understood to be in ratio.

The value of relative binding ratio (IC50 of standard peptide / IC50 of test peptide) measured for the binder WMIDSECRPR (also called Her2/neu.959) [HER2/neu peptide, position 959, 10 amino acids] turned out to be 0.0002

Record summary for WMALESILR (also called Her2/neu.888) [HER2/neu peptide, position 888, 9 amino acids] : reported relative binding ratio (IC50 of standard peptide / IC50 of test peptide) = -0.0002

What the record says about YVMAGVGSPY (also called Her2/neu.772) [HER2/neu peptide, position 772, 10 amino acids] : relative binding ratio (IC50 of standard peptide / IC50 of test peptide) is 0.012

Reported relative binding ratio (IC50 of standard peptide / IC50 of test peptide) of VSEFSRMAR (also called Her2/neu.973) [HER2/neu peptide, position 973, 9 amino acids] : 0.0021

Form field relative binding ratio (IC50 of standard peptide / IC50 of test peptide), entry WMALESILRR (also called Her2/neu.888) [HER2/neu peptide, position 888, 10 amino acids] : 0.0016

Summary for this binder, VTGASPGGLR (also called Her2/neu.129) [HER2/neu peptide, position 129, 10 amino acids] : relative binding ratio (IC50 of standard peptide / IC50 of test peptide) is 0.0005

relative binding ratio (IC50 of standard peptide / IC50 of test peptide) reading for WIPDGENVK (also called Her2/neu.739) [HER2/neu peptide, printed position 730 (taken as 739), 9 amino acids] : 0.0001

Value of measured relative binding ratio (IC50 of standard peptide / IC50 of test peptide) for the entry YVLIAHNQVR (also called Her2/neu.83) [HER2/neu peptide, position 83, 10 amino acids] : 0.0013

Continuing:
So for YLEDVRLVHR (also called Her2/neu.835) [HER2/neu peptide, position 835, 10 amino acids] , the logged relative binding ratio (IC50 of standard peptide / IC50 of test peptide) turned out to be 0.0001

Lab note: VTAEDGTQR (also called Her2/neu.322) [HER2/neu peptide, position 322, 9 amino acids] gave relative binding ratio (IC50 of standard peptide / IC50 of test peptide) of 0.014

The value of relative binding ratio (IC50 of standard peptide / IC50 of test peptide) measured for the binder VVQGNLELTY (also called Her2/neu.55) [HER2/neu peptide, position 55, 10 amino acids] turned out to be 0.011
